# System: BR5-FvB1
pIC50: −log10 of the molar value.
MEASURED_ATTRIBUTE: pIC50

- STRUCTURE_SMILES: "C=CC(=O)N1CC/C(=C\\c2ccc(F)c([N+](=O)[O-])c2)C(=O)/C(=C/c2ccc(F)c([N+](=O)[O-])c2)C1"
  EXPERIMENTAL_VALUE: 6.60

* * *

# ASSAY_NAME: MTT cytotoxicity assay, RPE1
# SETTINGS: human, RPE1 cells
pIC50: −log10 of the molar value.

- COMPOUND: "O=C(c1cc(Cc2n[nH]c(=O)c3ccccc23)ccc1F)N1CCN(C(=O)C2CC2)CC1 [OLA, olaparib, reference compound]"
  pIC50: 4.63
- COMPOUND: "CC(C)C[C@H](NC(=O)[C@H](Cc1ccccc1)NC(=O)c1cnccn1)B(O)O [Bortezomib, bortezomib, reference compound]"
  pIC50: 8.46

* * *

Parameter pIC50: see the listing below.
# Test system: HeLa
# SETTINGS: human
pIC50: −log10 of the molar value.

- MOLECULE: "O=C(CCl)N[C@@H](Cc1ccccc1)C(=O)N1C/C(=C\\c2ccc([N+](=O)[O-])cc2)C(=O)/C(=C/c2ccc([N+](=O)[O-])cc2)C1 [RA375]"
  TARGET_ENTITY: "HeLa"
  pIC50: 7.89
- MOLECULE: "C[C@H]1/C(=C\\c2ccc([N+](=O)[O-])cc2)C(=O)/C(=C/c2ccc([N+](=O)[O-])cc2)CN1C(=O)[C@@H](N)Cc1ccccc1"
  TARGET_ENTITY: "HeLa"
  pIC50: 7.64
- MOLECULE: "CC1/C(=C\\c2ccc([N+](=O)[O-])cc2)C(=O)/C(=C/c2ccc([N+](=O)[O-])cc2)CN1C(=O)[C@@H](N)Cc1ccccc1 (mixture of isomers) [RA413]"
  TARGET_ENTITY: "HeLa"
  pIC50: 7.02

* * *

# Test system: SKOV3-TR
pIC50: −log10 of the molar value.
MEASURED_ATTRIBUTE: pIC50

- MOLECULE: "C=CC(=O)N1CC/C(=C\\c2ccc(F)c([N+](=O)[O-])c2)C(=O)/C(=C/c2ccc(F)c([N+](=O)[O-])c2)C1 [VLX1570]"
  EXPERIMENTAL_VALUE: 6.52

* * *

# System: C2KmFvB1
# ASSAY_NAME: MTT cytotoxicity assay, C2KmFvB1
# SETTINGS: read-out: cytotoxicity IC50 C2KmFvB1, Tables 3A/4B/4C, BRCA2 + Ve
Parameter IC50: see the listing below.
MEASURED_ATTRIBUTE: IC50 (nM)

- MOLECULE: "N[C@@H](Cc1ccccc1)C(=O)N1C/C(=C\\c2ccc(Cl)c(Cl)c2)C(=O)/C(=C/c2ccc(Cl)c(Cl)c2)C1 [RA190, reference compound]"
  READOUT_UNIT: "nM"
  EXPERIMENTAL_VALUE: 436
- MOLECULE: "CC[C@]1(O)C[C@H]2CN(CCc3c([nH]c4ccccc34)[C@@](C(=O)OC)(c3cc4c(cc3OC)N(C=O)[C@H]3[C@@](O)(C(=O)OC)[C@H](OC(C)=O)[C@]5(CC)C=CCN6CC[C@]43[C@@H]65)C2)C1"
  READOUT_UNIT: "nM"
  EXPERIMENTAL_VALUE: 13.4
- MOLECULE: "O=C(c1cc(Cc2n[nH]c(=O)c3ccccc23)ccc1F)N1CCN(C(=O)C2CC2)CC1 [OLA, olaparib, reference compound]"
  READOUT_UNIT: "nM"
  EXPERIMENTAL_VALUE: 7960
